Reference source for all entries: ChEMBL document CHEMBL4765232

Test: Intrinsic clearance in rat liver microsomes assessed per mg protein
Assay type: ADME, Microsome
result-type: CLH (µL/min)

- COc1cc(C)[nH]c(=O)c1CNC(=O)c1c(C)n([C@H](C)C2CCN(CCC(F)(F)F)CC2)c2ccccc12: 25.7
- COc1cc(C)[nH]c(=O)c1CNC(=O)c1c(C)n([C@H](C)C2CCN(CC(F)(F)F)CC2)c2ccccc12 [CPI-1205]: 99.6
- COc1cc(C)[nH]c(=O)c1CNC(=O)c1c(C)n([C@H](C)C2CCN(CC(C)(F)F)CC2)c2ccccc12: 86.1
- COc1cc(C)[nH]c(=O)c1CNC(=O)c1c(C)n([C@H](C)C2CCN(CC(F)F)CC2)c2ccccc12: 71.3

----------
Test: Half life in Balb/c mouse plasma at 1 mg/kg, iv formulated with 5:60:35 DMA/PEG400/20% SBECD
Format: ADME, organism-based
result-type: half-life (h)

* COc1cc(C)[nH]c(=O)c1CNC(=O)c1c(C)n([C@H](C)C2CCN(CC(F)(F)F)CC2)c2ccccc12 | 1.63

----------
Target: Histone-lysine N-methyltransferase EZH2 (Homo sapiens)
Sequence (Q15910 whole entry): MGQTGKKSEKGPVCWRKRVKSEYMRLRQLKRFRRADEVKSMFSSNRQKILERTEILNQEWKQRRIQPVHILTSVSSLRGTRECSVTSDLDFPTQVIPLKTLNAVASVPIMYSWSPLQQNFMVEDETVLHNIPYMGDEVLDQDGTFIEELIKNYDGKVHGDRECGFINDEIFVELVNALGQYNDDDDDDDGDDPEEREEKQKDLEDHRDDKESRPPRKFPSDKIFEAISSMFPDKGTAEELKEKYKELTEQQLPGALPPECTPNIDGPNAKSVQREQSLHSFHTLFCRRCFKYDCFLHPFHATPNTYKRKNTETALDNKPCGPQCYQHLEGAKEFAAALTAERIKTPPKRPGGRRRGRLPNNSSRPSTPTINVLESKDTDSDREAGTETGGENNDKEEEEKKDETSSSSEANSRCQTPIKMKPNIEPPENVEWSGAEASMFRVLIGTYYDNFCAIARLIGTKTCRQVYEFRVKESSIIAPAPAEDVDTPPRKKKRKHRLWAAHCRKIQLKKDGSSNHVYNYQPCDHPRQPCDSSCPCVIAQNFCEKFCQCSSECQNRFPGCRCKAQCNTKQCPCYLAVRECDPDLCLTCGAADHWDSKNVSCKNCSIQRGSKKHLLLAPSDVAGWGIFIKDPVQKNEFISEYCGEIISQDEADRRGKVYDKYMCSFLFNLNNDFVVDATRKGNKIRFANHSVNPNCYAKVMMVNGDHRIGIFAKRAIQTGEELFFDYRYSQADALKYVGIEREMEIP
Experiment: Inhibition of wild-type EZH2 in PRC2 complex (unknown origin) using RKQLATKAARK(Me3)SAPATGGVKKP-NH2 peptide substrate preincubated for 30 mins followed by addition of [3H]-SAM measured after 2 hrs by Topcount scintillation proximity assay
As shown below, each of these compounds has a reported IC50 value.
result-type: IC50 (nM)

* COc1cc(C)[nH]c(=O)c1CNC(=O)c1c(C)n([C@H](C)C2CCN(CC(F)F)CC2)c2ccccc12 | 1.8
* COc1cc(C)[nH]c(=O)c1CNC(=O)c1c(C)n([C@H](C)C2CCN(CCC(F)(F)F)CC2)c2ccccc12 | 2.3

----------
Assay: Volume of distribution at steady in Balb/c mouse at 1 mg/kg, iv formulated with 5:60:35 DMA/PEG400/20% SBECD
Assay type: ADME, organism-based
Details: in vivo, read-out: Vdss
result-type: Vd (L/kg)

• COc1cc(C)[nH]c(=O)c1CNC(=O)c1c(C)n([C@H](C)C2CCN(CC(F)(F)F)CC2)c2ccccc12 = 1.36

----------
As shown below, each of these compounds has a reported fraction unbound value.
Experiment: Protein binding in human plasma assessed as bound fraction
Type: ADME, cell-free
Conditions: read-out: PPB (converted)
result-type: fraction unbound

- COc1cc(C)[nH]c(=O)c1CNC(=O)c1c(C)n([C@H](C)C2CCN(CC(C)(F)F)CC2)c2ccccc12: 0.053
- COc1cc(C)[nH]c(=O)c1CNC(=O)c1c(C)n([C@H](C)C2CCN(CC(F)F)CC2)c2ccccc12: 0.167
- COc1cc(C)[nH]c(=O)c1CNC(=O)c1c(C)n([C@H](C)C2CCN(CC(F)(F)F)CC2)c2ccccc12: 0.072
- COc1cc(C)[nH]c(=O)c1CNC(=O)c1c(C)n([C@H](C)C2CCN(CCC(F)(F)F)CC2)c2ccccc12: 0.041

----------
Test: Clearance in Beagle dog at 1 mg/kg, iv
Format: ADME, organism-based, Canis lupus familiaris
Conditions: in vivo
result-type: clearance (mL/min/kg)

* COc1cc(C)[nH]c(=O)c1CNC(=O)c1c(C)n([C@H](C)C2CCN(CC(F)(F)F)CC2)c2ccccc12 | 23.5
